# target or test system: Neuropilin-1 (Homo sapiens) (UniProt O14786)
# Sequence (O14786 whole entry, looked up): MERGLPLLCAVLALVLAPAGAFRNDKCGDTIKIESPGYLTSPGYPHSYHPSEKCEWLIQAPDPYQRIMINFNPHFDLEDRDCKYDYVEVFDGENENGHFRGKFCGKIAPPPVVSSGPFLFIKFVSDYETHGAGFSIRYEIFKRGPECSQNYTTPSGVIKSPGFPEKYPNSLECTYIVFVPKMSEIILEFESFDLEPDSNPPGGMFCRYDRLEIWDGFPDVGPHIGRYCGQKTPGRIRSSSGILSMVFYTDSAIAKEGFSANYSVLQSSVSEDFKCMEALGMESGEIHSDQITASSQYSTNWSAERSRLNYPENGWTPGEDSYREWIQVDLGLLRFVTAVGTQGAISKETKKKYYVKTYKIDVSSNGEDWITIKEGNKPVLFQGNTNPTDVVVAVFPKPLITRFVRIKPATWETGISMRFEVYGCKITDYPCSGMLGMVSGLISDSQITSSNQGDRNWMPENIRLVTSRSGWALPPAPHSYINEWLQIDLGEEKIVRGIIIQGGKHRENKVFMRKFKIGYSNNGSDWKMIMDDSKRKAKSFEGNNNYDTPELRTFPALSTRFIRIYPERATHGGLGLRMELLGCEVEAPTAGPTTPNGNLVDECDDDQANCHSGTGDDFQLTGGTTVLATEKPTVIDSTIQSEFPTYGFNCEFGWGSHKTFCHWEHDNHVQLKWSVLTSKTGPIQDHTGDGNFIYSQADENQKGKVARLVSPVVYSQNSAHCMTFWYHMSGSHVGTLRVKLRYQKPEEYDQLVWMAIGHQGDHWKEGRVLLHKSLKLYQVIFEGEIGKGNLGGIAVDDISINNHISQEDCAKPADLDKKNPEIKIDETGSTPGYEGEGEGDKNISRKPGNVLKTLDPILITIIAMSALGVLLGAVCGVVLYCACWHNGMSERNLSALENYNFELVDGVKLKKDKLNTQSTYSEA
# assay comment: NRP-1 b1b2 CendR peptide binding inhibitors, dose response, biochemical, FP and AlphaScreen panel (AID 651650)
# run parameters: NRP-1 b1b2 / RPARPAR peptide binding, FP or AlphaScreen; FP, run 2; individual panel run IC50
pIC50: −log10 of the molar value.
Here, each record is paired with measured pIC50 data.

Sample CCOC(=O)N1CCN(C(=O)c2cc3n(n2)C(C(F)(F)F)CC(c2ccc4c(c2)OCO4)N3)CC1 (stereo not given) — what was its pIC50?
< 4.02

Requested read-out: pIC50. Entry: Cc1cc(C)n2c(Nc3ccc4c(c3)OCCO4)c(-c3ccccn3)nc2n1
< 4.02

====

# target or test system: Neuropilin-1 (Homo sapiens) (UniProt O14786)
# assay comment: NRP-1 b1b2 CendR peptide binding inhibitors, dose response, biochemical, FP and AlphaScreen panel (AID 651650)
# run parameters: NRP-1 b1b2 / RPARPAR peptide binding, FP or AlphaScreen; AlphaScreen, run 1; individual panel run IC50
pIC50: −log10 of the molar value.
measured parameter: pIC50

Worked examples follow.
molecule=O=C(COC(=O)c1ccccn1)c1ccc([N+](=O)[O-])cc1 measured_parameter=pIC50 assay_result="< 4.00"
molecule=CCOc1cc(C(=O)NCCN2CCOCC2)cc(OCC)c1OCC measured_parameter=pIC50 assay_result="< 4.00"

Okay, next one:
# query: pIC50 of entry Cc1ccc(OCC(=O)Nc2ccc(C)c(S(=O)(=O)N3CCCCCC3)c2)c([N+](=O)[O-])n1
< 4.00

====

In this section we review reported IC50 values for a set of compounds.
# target or test system: Neuropilin-1 (Homo sapiens)
# assay comment: NRP-1 b1b2 CendR peptide binding inhibitors, dose response, biochemical, FP and AlphaScreen panel (AID 651650)
# run parameters: NRP-1 b1b2 / RPARPAR peptide binding, FP or AlphaScreen; AlphaScreen, run 1; individual panel run IC50

compound=CCCn1c(C)cc(C(=O)CSc2nc3nc(C)cc(C)n3n2)c1C target_or_test_system="Neuropilin-1 (Homo sapiens)" assay_result="> 100 µM"
compound=NC(=O)C1CCN(c2nc(-c3ccc4occc(=O)c4c3)cs2)CC1 target_or_test_system="Neuropilin-1 (Homo sapiens)" assay_result="> 100 µM"
compound=CCc1ccc(OC(=O)CN2C(=O)c3ccccc3C2=O)cc1 target_or_test_system="Neuropilin-1 (Homo sapiens)" assay_result="32 µM"
compound=Cc1ccc(NC(=S)Nc2cccc3ccccc23)cc1 target_or_test_system="Neuropilin-1 (Homo sapiens)" assay_result="> 100 µM"
compound=Cc1cc2cc(CNC(=O)c3ccco3)ccc2n1C target_or_test_system="Neuropilin-1 (Homo sapiens)" assay_result="> 100 µM"
compound=CCn1c(SCC(=O)c2ccccc2)nnc1-c1cccs1 target_or_test_system="Neuropilin-1 (Homo sapiens)" assay_result="95.3 µM"
compound="FC(F)(F)C1CC(c2cccs2)Nc2ncnn21 (stereo not given)" target_or_test_system="Neuropilin-1 (Homo sapiens)" assay_result="> 100 µM"
compound="CCOC(=O)C1(O)CC(C)=NN1C(=O)c1cccc(Br)c1 (stereo not given)" target_or_test_system="Neuropilin-1 (Homo sapiens)" assay_result="> 100 µM"
compound=Oc1ccccc1-c1ccn[nH]1 target_or_test_system="Neuropilin-1 (Homo sapiens)" assay_result="> 100 µM"
compound=Cc1cccc(NS(=O)(=O)c2cccs2)c1 target_or_test_system="Neuropilin-1 (Homo sapiens)" assay_result="> 100 µM"

Give recorded IC50 with Neuropilin-1 (Homo sapiens) for the following compound: COc1ccc(C(CNc2ccc(S(=O)(=O)N3CCCC3)cc2[N+](=O)[O-])N2CCCC2)cc1 (stereo not given)
12.2 µM

What measured IC50 is associated with COc1ccc(-c2[nH]ncc2CN(C)CCc2c(C)n[nH]c2C)c(F)c1 on Neuropilin-1 (Homo sapiens)?
> 100 µM

For Neuropilin-1 (Homo sapiens), provide IC50 of CCOc1ccc(/C=C2/Sc3ccc(C(=O)NCC4CCCO4)cc3N(C)C2=O)cc1OC (stereo not given) please.
> 100 µM

# get_value(readout= IC50, system= Neuropilin-1 (Homo sapiens)) for CNc1nc(-c2ccc3c(c2)CCN3C(=O)c2ccccc2F)cs1
> 100 µM

Please tell me: IC50 of CSc1nc2ccccc2c(=O)n1C1CCOC(C)(C)C1 (stereo not given) , system Neuropilin-1 (Homo sapiens)?
> 100 µM

Form entry - test system: Neuropilin-1 (Homo sapiens); read-out: IC50; compound: CC(C)Cc1ccc(C(C)C(=O)Nc2ccc(O)cc2)cc1 (stereo not given)
> 100 µM
